MEASUREMENT_TYPE: melting point

Please review the following examples before continuing.
COMPOUND | melting point
CN1CCC(=C2c3ccccc3C(CO)=C(CO)c3ccccc32)CC1 | 204 to 205 °C
COC(=O)CC(O)C(O)CC(=O)OC (centres undefined) | 80 to 81 °C
Cn1c(=O)cnn(-c2ccc(Cl)c(C(=O)NCCc3ccccc3Cl)c2)c1=O | 157 to 161 °C
CCNS(=O)(=O)c1cccc(OCc2nc3ccccc3s2)c1 | 111 to 113 °C

Turning now to a further record.
Ask: Which measured melting point value corresponds to "Cc1cc2c(-c3ccccc3)c(CCNC(=O)OCc3ccccc3)n(C)c(=O)c2cc1C" ?
Result: 227 to 228 °C
